Cited source: patent US20170022281A1

TARGET DESC: T1, mouse PRLR ECD-Fc fusion protein (mouse, UniProt Q08501 20-229)
T1 construct: extracellular domain; not shown: Fc region (captured by goat anti-human Fc)
T1 sequence (looked up): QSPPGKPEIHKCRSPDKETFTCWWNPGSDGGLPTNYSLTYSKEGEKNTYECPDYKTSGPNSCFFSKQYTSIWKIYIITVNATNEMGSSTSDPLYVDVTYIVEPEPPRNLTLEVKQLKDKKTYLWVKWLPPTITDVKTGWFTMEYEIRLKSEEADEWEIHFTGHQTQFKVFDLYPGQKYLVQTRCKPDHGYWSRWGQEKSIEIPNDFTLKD
EXPERIMENT DESCRIPTION: ELISA on ECD
pEC50: −log10 of the molar value.
Readings of pEC50 for the listed binders

- BINDER: "Ab7 (antibody, V domains shown, murine monoclonal, isotype G1; also called murine Ab7) VH: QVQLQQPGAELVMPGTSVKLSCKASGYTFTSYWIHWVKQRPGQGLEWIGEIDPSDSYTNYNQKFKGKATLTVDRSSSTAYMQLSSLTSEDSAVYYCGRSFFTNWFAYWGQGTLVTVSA VL: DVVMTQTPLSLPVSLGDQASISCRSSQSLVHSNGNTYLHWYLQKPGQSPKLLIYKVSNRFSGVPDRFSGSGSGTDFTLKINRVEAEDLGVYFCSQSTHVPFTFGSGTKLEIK"
  pEC50: 9.84
- BINDER: "Ab8 (antibody, V domains shown, murine monoclonal, isotype G2b; also called murine Ab8) VH: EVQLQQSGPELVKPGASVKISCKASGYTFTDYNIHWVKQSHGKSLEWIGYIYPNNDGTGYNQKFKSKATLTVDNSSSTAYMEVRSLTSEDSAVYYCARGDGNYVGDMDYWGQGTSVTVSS VL: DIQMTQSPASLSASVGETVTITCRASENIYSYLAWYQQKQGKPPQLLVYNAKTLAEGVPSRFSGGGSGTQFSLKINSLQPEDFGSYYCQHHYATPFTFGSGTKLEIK"
  pEC50: 9.47
- BINDER: "Ab13 (antibody, V domains shown, murine monoclonal, isotype G2a; also called murine Ab13) VH: QVQLQQPGAELVRPGTSVKLSCKASGYTFTSFWMHWVKQRPGQGLEWIGVIDPSDSHTNYNQKFKGKATLTVNTSSSTAYMHLSSLTSEDSAVYYCARGDYSNWFTYWGQGTLVTVSA VL: DVVMTQTPFSLPVSLGDQASISCRSSQSLVHSNGNTYLHWYLQKPGQSPKLLIYKVSNRFSGVPDRFSGSGSGTDFTLKISRVEAEDLELYFCSQSTHVPWTFGGGTKLEIK"
  pEC50: 10.06
- BINDER: "Ab5 (antibody, V domains shown, murine monoclonal, isotype G2a; also called murine Ab5) VH: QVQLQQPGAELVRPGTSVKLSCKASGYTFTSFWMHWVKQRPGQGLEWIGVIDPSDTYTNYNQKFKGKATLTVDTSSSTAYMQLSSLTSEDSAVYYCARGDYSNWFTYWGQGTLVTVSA VL: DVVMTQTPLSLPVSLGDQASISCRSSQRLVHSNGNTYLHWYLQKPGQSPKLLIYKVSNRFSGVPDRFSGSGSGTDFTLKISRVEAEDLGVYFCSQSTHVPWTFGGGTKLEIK"
  pEC50: 10.01
